Source: the supplement of paper PMC11061612

Test system: NCI-H209 (Small Cell Lung Carcinoma)
Measurement notes: combination Emax (second highest fraction inhibited in the dose matrix, 72 h); higher = more inhibition; extreme values may be limits of the assay
Quantity measured: combination Emax
Give only the figure.

// known answers, use as guide
| Compound | Reported value |
| --- | --- |
| COc1nnc2ccc(N3CCC(c4ccc(OCCN5CCN(C)C(=O)[C@H]5C)cc4)CC3)nn12 [AZD5153] + CC1(C)CCC(CN2CCN(c3ccc(C(=O)NS(=O)(=O)c4ccc(NCC5CCOCC5)c([N+](=O)[O-])c4)c(Oc4cnc5[nH]ccc5c4)c3)CC2)=C(c2ccc(Cl)cc2)C1 [Venetoclax] (first compound max 1 µM, 7x7, partner max 1 µM) | 0.727 |
| CC(=O)c1c(C)c2cnc(Nc3ccc(N4CCNCC4)cn3)nc2n(C2CCCC2)c1=O [Palbociclib] + Cc1c2c(nn1C)CSCc1cc(n(C)n1)CSc1cc(c3ccccc3c1)OCCCc1c(C(=O)O)n(C)c3c-2c(Cl)ccc13 [AZD5991] (first compound max 10 µM, 7x7, partner max 1 µM) | 0.908 |
| COc1cccc(OCCCN)c1-c1cc(Nc2cnc(C#N)cn2)n[nH]1 [Prexasertib] + CCc1c2c(nc3ccc(O)cc13)-c1cc3c(c(=O)n1C2)COC(=O)[C@]3(O)CC [SN-38] (first compound max 1 µM, 7x7, partner max 0.3 µM) | 1 |
| Cn1cnc2c(F)c(Nc3ccc(Br)cc3Cl)c(C(=O)NOCCO)cc21 [Selumetinib] + CC(C)n1c(=O)n(C)c2cnc3cc(F)c(-c4ccc(OCCCN5CCCCC5)nc4)cc3c21 [AZD1390] (first compound max 10 µM, 7x7, partner max 0.3 µM) | 0.0904 |
| CC1(C)CCC(CN2CCN(c3ccc(C(=O)NS(=O)(=O)c4ccc(NCC5CCOCC5)c([N+](=O)[O-])c4)c(Oc4cnc5[nH]ccc5c4)c3)CC2)=C(c2ccc(Cl)cc2)C1 [Venetoclax] + Cc1cc2ncnn2cc1Nc1ncc2c(n1)n(C1CCOCC1)c(=O)n2C [AZD7648] (first compound max 1 µM, 7x7, partner max 10 µM) | 0.642 |

q: Given the compound Cc1c2c(nn1C)CSCc1cc(n(C)n1)CSc1cc(c3ccccc3c1)OCCCc1c(C(=O)O)n(C)c3c-2c(Cl)ccc13 [AZD5991] + CN(C)CCCOc1ccc(-c2ccc3ncc4c(c3c2)n(C2CCOCC2)c(=O)n4C)cn1 [AZD0156] (first compound max 1 µM, 7x7, partner max 1 µM) , what is its reported combination Emax?
a: 0.544

q: What does the data say about its combination Emax? Entry: C[C@@H](c1ccc2nccn2c1)n1nnc2ncc(-c3cnn(C)c3)nc21 [Savolitinib] + Cc1c2c(nn1C)CSCc1cc(n(C)n1)CSc1cc(c3ccccc3c1)OCCCc1c(C(=O)O)n(C)c3c-2c(Cl)ccc13 [AZD5991] (first compound max 1 µM, 7x7, partner max 1 µM)
a: 0.323

----------
combination Emax: recorded values
Tested on: LS-123 (Colorectal Carcinoma)
Measurement notes: combination Emax (second highest fraction inhibited in the dose matrix, 72 h); higher = more inhibition; extreme values may be limits of the assay

| Molecule | Reported value |
| --- | --- |
| COc1cccc(OCCCN)c1-c1cc(Nc2cnc(C#N)cn2)n[nH]1 [Prexasertib] + CN(C)CCCOc1ccc(-c2ccc3ncc4c(c3c2)n(C2CCOCC2)c(=O)n4C)cn1 [AZD0156] (first compound max 1 µM, 7x7, partner max 1 µM) | 0.752 |

We now examine a further molecule.
q: Item: C=CCn1c(=O)c2cnc(Nc3ccc(N4CCN(C)CC4)cc3)nc2n1-c1cccc(C(C)(C)O)n1 [AZD1775] + O=C(c1cc(Cc2n[nH]c(=O)c3ccccc23)ccc1F)N1CCN(C(=O)C2CC2)CC1 [Olaparib] (first compound max 1 µM, partner max 10 µM) Test system: LS-123 (Colorectal Carcinoma) Read-out: combination Emax Value: ?
a: 0.644
